Entries and their amyloid nucleation score values follow.
# experiment-notes: amyloid nucleation score (Sup35N fusion, yeast selection) (log enrichment); library NNK1; higher = more nucleation; inactive = no reads after selection;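 further: zero at mode of non-aggregating sequences after 7 days selection at 30°C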
property-measured: amyloid nucleation score

GSCGKGHLSPRALLFTHSWQ
-0.446
QGISPLRWAVLYRFMYGCVR
-0.209
CTGIWSLLSCTTFRHIATVV
-0.469
HNSNECYYF
-1.06
ERKRTFY
0.536
DLLETKWIPSLVYKSFESLW
-0.137
DTNQGYGVSGQIVKGRICFN
-0.681
MLYFRVGVSFGLFVDNFVGF
2.12
ICHFVLYVQRPNSGWHYKSL
1.91
FEFIVMEIAC
-0.189
CARSVCKSQYSSMSMPYLIV
0.782
DRKVGNHLFTRVCDEATMLM
1.75
MRVTFHYFS
-0.434
WHRDVGFTLISVTPFCMMGG
1.54
GSMNVECDRDRDRYNVCHYR
-0.569
FEIMQPNAHISCHYCYLVNM
5.01
YILKGNYLYRRVQLDLRTRR
-0.244
SSLQFEMVFGTCYCRKSYSR
4.19
VWDSFSHVLVRLGIYLFFYV
0.763
LSYMGGIPGVLHVMPDAFTV
-0.077
ALWVNVMQARAIGSGFGRTK
-0.415
MSSVNWYANDLLSVLGIGSR
-0.202
NFIFVR
0.706
MMVRGMW
1.34
DSNFVTGWMTSIMLRVGVLR
0.514
LSTGLKFACATRVSYALVRV
0.117
LLAPAS
0.032
WDFFYLMSMLPRDEVGFL
0.756
GGIVLDTTHRVGYGRTSPCV
0.289
MVSDMLVKATVHPMYFMTLW
-0.34
NILKNTLAFSVYLISLPLHV
1.82
SLRSHML
0.938
RRLLTCGGSPYRQLR
-0.078
IQSSPIR
0.464
IWCNMSFNIRV
4.4
MSFTSAY
-0.238
IMKYPETGLAGRLLTGYTLS
0.633
FVKGRGNKTQVWHESVYKDA
-0.203
LRVQWRQSTFN
0.865
RGAQARSQCCMVVMSVESRS
0.628
GSGNVRL
-1.61
RSVRLMNRVSGWNMWWKDGT
-0.535
SLHILISH
0.537
LNRSNWANFCMAEFMDPRS
0.488
RLCIVLSRHMPYTDRMLVMP
0.259
DYRGYFKSDIYSNFLTFLPG
-0.663
FLTTLGWSYHRQNQLRMPRF
2.24
YLAKISSHDPGIAMMEMTGR
0.315
LVMCVFLSASVYVFPTHLSS
-1.18
FTSRYLDF
0.382
SRTVTLFHHASNKSFHSSVS
-0.074
SAVTDQLMV
0.119
IDKNVIIIKVLCMLIVFPTG
-0.771
EESSPEAWSVRERTAGVFVF
-0.09
TCYGQAVFLTDCSGRWDIYE
3.34
GQYVWADLINVVRLWVFVSR
0.503
ISCCVKLRFGLCKSWNFMNQ
-1.19
HGRIGLVWESGKCMTYLREV
0.191
CRLGNEKGRLKSWQNRSNIC
-0.22
NSCRCYFLLGELDLNAFNSV
1.74
DFVMGYYVELWFMYASL
0.4
ILSKVCGFSVARIWCSCISI
6.65
LERKMYRNISSLTVVGYTMS
-0.095
KYHRFFAG
-1.02
SVCPKINLLNFVWNYYAPTA
6.87
